Entries and their No. of responders (CD4-depleted PBMCs)
- Test system: CD4^+ depleted PBMCs from YF-17DD vaccinees
- Format: cell-based, human
quantity name: No. of responders (CD4-depleted PBMCs)

1) CSCC[C@H](NC(=O)[C@H](C)NC(=O)[C@H](CCSC)NC(=O)[C@@H](N)CCCNC(=N)N)C(=O)N[C@H](C(=O)N[C@@H](CC(=O)O)C(=O)N[C@H](C(=O)N[C@H](C(=O)N1CCC[C@H]1C(=O)N[C@@H](Cc1ccccc1)C(=O)NCC(=O)N[C@@H](CCC(N)=O)C(=O)N[C@@H](CCC(N)=O)C(=O)N[C@@H](CCCNC(=N)N)C(=O)N[C@H](C(=O)O)C(C)C)[C@@H](C)O)[C@@H](C)O)[C@@H](C)O [NS5_341–355] :: 0
2) CC[C@H](C)[C@H](NC(=O)[C@H](C)NC(=O)[C@H](CCCNC(=N)N)NC(=O)[C@H](CO)NC(=O)CNC(=O)[C@H](CCCCN)NC(=O)[C@H](C)NC(=O)[C@H](CCCCN)NC(=O)CNC(=O)[C@H](Cc1ccccc1)NC(=O)[C@@H](N)CCC(=O)O)C(=O)N[C@@H](Cc1c[nH]c2ccccc12)C(=O)N[C@@H](Cc1ccc(O)cc1)C(=O)N[C@@H](CCSC)C(=O)N[C@@H](Cc1c[nH]c2ccccc12)C(=O)O [NS5_465–479] :: 2
3) CC(C)C[C@H](NC(=O)[C@H](C)NC(=O)[C@H](CCC(=O)O)NC(=O)[C@H](Cc1ccccc1)NC(=O)[C@H](CCC(=O)O)NC(=O)[C@H](CC(C)C)NC(=O)[C@H](Cc1ccc(O)cc1)NC(=O)[C@H](CCCNC(=N)N)NC(=O)[C@H](C)NC(=O)CN)C(=O)NCC(=O)N[C@@H](Cc1ccccc1)C(=O)N[C@@H](CC(C)C)C(=O)N[C@@H](CC(N)=O)C(=O)N[C@@H](CCC(=O)O)C(=O)O [NS5_481–495] :: 2

====

- System: PBMCs from YF-17DD vaccinees
- Type: cell-based, human
quantity name: ELISPOT Max (SFC/10^6 PBMC)

1. CC[C@H](C)[C@H](NC(=O)CNC(=O)[C@H](CCCCN)NC(=O)[C@@H](N)CC(N)=O)C(=O)N[C@@H](CC(C)C)C(=O)N[C@H](C(=O)N[C@H](C(=O)N[C@H](C(=O)N[C@@H](CC(N)=O)C(=O)N1CCC[C@H]1C(=O)N[C@H](C(=O)N[C@@H](C)C(=O)N[C@@H](CO)C(=O)N[C@H](C(=O)N[C@@H](CC(N)=O)C(=O)O)[C@@H](C)O)[C@@H](C)CC)C(C)C)[C@@H](C)O)C(C)C :: 271

====

- System: CD4^+ depleted PBMCs from YF-17DD vaccinees
- Type: cell-based, human
Marks after values point to notes of the source that are not given here.
quantity name: IFN-γ SFC Average ± STDEV

1. CC(C)[C@H](NC(=O)[C@H](CCCNC(=N)N)NC(=O)[C@H](CCC(N)=O)NC(=O)[C@H](CCC(N)=O)NC(=O)CNC(=O)[C@H](Cc1ccccc1)NC(=O)[C@@H]1CCCN1C(=O)[C@@H](NC(=O)[C@@H](NC(=O)[C@H](CC(=O)O)NC(=O)[C@@H](N)[C@@H](C)O)[C@@H](C)O)[C@@H](C)O)C(=O)N[C@@H](Cc1ccccc1)C(=O)N[C@@H](CCCCN)C(=O)N[C@@H](CCC(=O)O)C(=O)N[C@@H](CCCCN)C(=O)O :: 66±71 SFC (CD4-depleted PBMCs/10^6)
2. CC[C@H](C)[C@H](NC(=O)[C@H](CC(C)C)NC(=O)[C@@H](NC(=O)[C@H](CCC(=O)O)NC(=O)[C@@H](N)CC(=O)O)C(C)C)C(=O)N[C@@H](CCC(=O)O)C(=O)N[C@H](C(=O)N[C@@H](CC(N)=O)C(=O)N1CCC[C@H]1C(=O)N1CCC[C@H]1C(=O)N[C@@H](Cc1ccccc1)C(=O)NCC(=O)N[C@@H](CC(=O)O)C(=O)N[C@@H](CO)C(=O)N[C@@H](Cc1ccc(O)cc1)C(=O)O)C(C)C :: 16±0 SFC (CD4-depleted PBMCs/10^6)
3. CC(C)C[C@H](NC(=O)[C@H](C)NC(=O)[C@H](CCC(=O)O)NC(=O)[C@H](Cc1ccccc1)NC(=O)[C@H](CCC(=O)O)NC(=O)[C@H](CC(C)C)NC(=O)[C@H](Cc1ccc(O)cc1)NC(=O)[C@H](CCCNC(=N)N)NC(=O)[C@H](C)NC(=O)CN)C(=O)NCC(=O)N[C@@H](Cc1ccccc1)C(=O)N[C@@H](CC(C)C)C(=O)N[C@@H](CC(N)=O)C(=O)N[C@@H](CCC(=O)O)C(=O)O :: 95±0 SFC (CD4-depleted PBMCs/10^6)
4. CC[C@H](C)[C@H](NC(=O)[C@H](C)NC(=O)[C@H](CCCNC(=N)N)NC(=O)[C@H](CO)NC(=O)CNC(=O)[C@H](CCCCN)NC(=O)[C@H](C)NC(=O)[C@H](CCCCN)NC(=O)CNC(=O)[C@H](Cc1ccccc1)NC(=O)[C@@H](N)CCC(=O)O)C(=O)N[C@@H](Cc1c[nH]c2ccccc12)C(=O)N[C@@H](Cc1ccc(O)cc1)C(=O)N[C@@H](CCSC)C(=O)N[C@@H](Cc1c[nH]c2ccccc12)C(=O)O :: 168±0 SFC (CD4-depleted PBMCs/10^6)
5. CC[C@H](C)[C@H](NC(=O)CNC(=O)[C@H](CCCCN)NC(=O)[C@@H](N)CC(N)=O)C(=O)N[C@@H](CC(C)C)C(=O)N[C@H](C(=O)N[C@H](C(=O)N[C@H](C(=O)N[C@@H](CC(N)=O)C(=O)N1CCC[C@H]1C(=O)N[C@H](C(=O)N[C@@H](C)C(=O)N[C@@H](CO)C(=O)N[C@H](C(=O)N[C@@H](CC(N)=O)C(=O)O)[C@@H](C)O)[C@@H](C)CC)C(C)C)[C@@H](C)O)C(C)C :: 315±160 SFC (CD4-depleted PBMCs/10^6)
